- Test system: SH-SY5Y
- Protocol Description: Reversal of okadaic acid-mediated PP2A catalytic subunit C Ser/Thr phosphatase activity inactivation in human SH-SY5Y cells assessed as recovery of PP2A activity at 0.1 uM preincubated for 24 hrs followed by cotreatment with PPA2 inhibitor okadaic acid for 18 hrs measured over 30 mins by pNPP based spectrophotometric analysis relative to control
- Assay type: cell-based
- Parameters: scale not given: the % may be the effect or the level left

[
  {
    "Smiles Record": "C#CCn1cc(CN(C)C)c2cc(Cl)ccc21",
    "Activity / %": 23
  },
  {
    "Smiles Record": "C#CCn1cc(CN(C)C)c2cc(Br)cnc21",
    "Activity / %": 17
  },
  {
    "Smiles Record": "CN(C)Cc1cn(Cc2ccccc2)c2ncc(Br)cc12",
    "Activity / %": 21
  },
  {
    "Smiles Record": "COc1cnc2c(c1)c(CN1CCCCC1)cn2Cc1ccccc1",
    "Activity / %": 47
  },
  {
    "Smiles Record": "Brc1cnc2c(c1)c(CN1CCCCC1)cn2Cc1ccccc1",
    "Activity / %": 31
  },
  {
    "Smiles Record": "CN(C)Cc1cn(Cc2ccccc2)c2ccccc12",
    "Activity / %": 45
  },
  {
    "Smiles Record": "C#CCn1cc(CN2CCCCC2)c2cc(Br)cnc21",
    "Activity / %": 25
  },
  {
    "Smiles Record": "CCCCn1cc(CN(C)C)c2cc(Br)cnc21",
    "Activity / %": 34
  }
]

* * *

- Test system: Voltage-gated calcium channel
- Protocol Description: Inhibition of voltage gated calcium channel in human SH-SY5Y cells assessed as blockade of K+-evoked calcium uptake at 1 uM pretreated for 10 mins followed by 70 mM K+ addition by Fluo-4AM dye based fluorescence assay relative to control
- Assay type: cell-based
// values below are reported inhibition (INH)

[
  {
    "Smiles Record": "Brc1cnc2c(c1)c(CN1CCCCC1)cn2Cc1ccccc1",
    "inhibition (INH) (%)": 15
  },
  {
    "Smiles Record": "C#CCn1cc(CN(C)C)c2ccccc21",
    "inhibition (INH) (%)": 3
  },
  {
    "Smiles Record": "CN(C)Cc1cn(Cc2ccccc2)c2ccccc12",
    "inhibition (INH) (%)": 22
  },
  {
    "Smiles Record": "C#CCn1cc(CN2CCCCC2)c2ccccc21",
    "inhibition (INH) (%)": 35
  },
  {
    "Smiles Record": "CCCCn1cc(CN2CCCCC2)c2cc(Br)cnc21",
    "inhibition (INH) (%)": 9
  },
  {
    "Smiles Record": "CCCCn1cc(CN2CCCCC2)c2cc(Cl)ccc21",
    "inhibition (INH) (%)": 24
  },
  {
    "Smiles Record": "C#CCn1cc(CN2CCCCC2)c2cc(Cl)ccc21",
    "inhibition (INH) (%)": 32
  },
  {
    "Smiles Record": "CN(C)Cc1cn(Cc2ccccc2)c2ccc(Cl)cc12",
    "inhibition (INH) (%)": 40
  },
  {
    "Smiles Record": "CCCCn1cc(CN2CCCCC2)c2ccccc21",
    "inhibition (INH) (%)": 13
  },
  {
    "Smiles Record": "CN(C)Cc1cn(Cc2ccccc2)c2ncc(Br)cc12",
    "inhibition (INH) (%)": 46
  },
  {
    "Smiles Record": "C#CCn1cc(CN(C)C)c2cc(Br)cnc21",
    "inhibition (INH) (%)": 11
  },
  {
    "Smiles Record": "Clc1ccc2c(c1)c(CN1CCCCC1)cn2Cc1ccccc1",
    "inhibition (INH) (%)": 37
  },
  {
    "Smiles Record": "COc1cnc2c(c1)c(CN1CCCCC1)cn2Cc1ccccc1",
    "inhibition (INH) (%)": 19
  },
  {
    "Smiles Record": "C#CCn1cc(CN2CCCCC2)c2cc(Br)cnc21",
    "inhibition (INH) (%)": 8
  },
  {
    "Smiles Record": "CCCCn1cc(CN(C)C)c2cc(Cl)ccc21",
    "inhibition (INH) (%)": 23
  },
  {
    "Smiles Record": "c1ccc(Cn2cc(CN3CCCCC3)c3ccccc32)cc1",
    "inhibition (INH) (%)": 11
  },
  {
    "Smiles Record": "CCCCn1cc(CN(C)C)c2cc(Br)cnc21",
    "inhibition (INH) (%)": 10
  },
  {
    "Smiles Record": "CCCCn1cc(CN(C)C)c2ccccc21",
    "inhibition (INH) (%)": 7
  },
  {
    "Smiles Record": "COc1cnc2c(c1)c(CN(C)C)cn2Cc1ccccc1",
    "inhibition (INH) (%)": 10
  },
  {
    "Smiles Record": "C#CCn1cc(CN(C)C)c2cc(Cl)ccc21",
    "inhibition (INH) (%)": 18
  }
]

* * *

- Tested on: SH-SY5Y
- Protocol Description: Reversal of okadaic acid-mediated PP2A catalytic subunit C Ser/Thr phosphatase activity inactivation in human SH-SY5Y cells assessed as recovery of PP2A activity at 0.1 uM preincubated for 24 hrs followed by cotreatment with PPA2 inhibitor okadaic acid for 18 hrs measured over 30 mins by pNPP based spectrophotometric analysis relative to control
- Type: cell-based
- Design: scale not given: the % may be the effect or the level left
Activity vs 30%: less than gives Met; not less than gives Not met.

[
  {
    "Compound": "CCCCn1cc(CN2CCCCC2)c2cc(Cl)ccc21",
    "Study System": "SH-SY5Y",
    "Label": "Not met"
  },
  {
    "Compound": "COc1cnc2c(c1)c(CN(C)C)cn2Cc1ccccc1",
    "Study System": "SH-SY5Y",
    "Label": "Not met"
  },
  {
    "Compound": "C#CCn1cc(CN2CCCCC2)c2cc(Cl)ccc21",
    "Study System": "SH-SY5Y",
    "Label": "Not met"
  },
  {
    "Compound": "Clc1ccc2c(c1)c(CN1CCCCC1)cn2Cc1ccccc1",
    "Study System": "SH-SY5Y",
    "Label": "Met"
  },
  {
    "Compound": "CC12CC3CC(C)(C1)CC(N)(C3)C2 [MEMANTINE]",
    "Study System": "SH-SY5Y",
    "Label": "Met"
  },
  {
    "Compound": "CCCCn1cc(CN2CCCCC2)c2cc(Br)cnc21",
    "Study System": "SH-SY5Y",
    "Label": "Met"
  },
  {
    "Compound": "C#CCn1cc(CN(C)C)c2ccccc21",
    "Study System": "SH-SY5Y",
    "Label": "Not met"
  },
  {
    "Compound": "C#CCn1cc(CN2CCCCC2)c2ccccc21",
    "Study System": "SH-SY5Y",
    "Label": "Met"
  },
  {
    "Compound": "CN(C)Cc1cn(Cc2ccccc2)c2ccc(Cl)cc12",
    "Study System": "SH-SY5Y",
    "Label": "Not met"
  },
  {
    "Compound": "c1ccc(Cn2cc(CN3CCCCC3)c3ccccc32)cc1",
    "Study System": "SH-SY5Y",
    "Label": "Not met"
  },
  {
    "Compound": "CCCCn1cc(CN(C)C)c2cc(Cl)ccc21",
    "Study System": "SH-SY5Y",
    "Label": "Not met"
  },
  {
    "Compound": "CCCCn1cc(CN(C)C)c2ccccc21",
    "Study System": "SH-SY5Y",
    "Label": "Met"
  }
]
